measuredTarget: recombinant Wip1 (Homo sapiens, UniProt O15297)
Sequence (O15297 whole entry): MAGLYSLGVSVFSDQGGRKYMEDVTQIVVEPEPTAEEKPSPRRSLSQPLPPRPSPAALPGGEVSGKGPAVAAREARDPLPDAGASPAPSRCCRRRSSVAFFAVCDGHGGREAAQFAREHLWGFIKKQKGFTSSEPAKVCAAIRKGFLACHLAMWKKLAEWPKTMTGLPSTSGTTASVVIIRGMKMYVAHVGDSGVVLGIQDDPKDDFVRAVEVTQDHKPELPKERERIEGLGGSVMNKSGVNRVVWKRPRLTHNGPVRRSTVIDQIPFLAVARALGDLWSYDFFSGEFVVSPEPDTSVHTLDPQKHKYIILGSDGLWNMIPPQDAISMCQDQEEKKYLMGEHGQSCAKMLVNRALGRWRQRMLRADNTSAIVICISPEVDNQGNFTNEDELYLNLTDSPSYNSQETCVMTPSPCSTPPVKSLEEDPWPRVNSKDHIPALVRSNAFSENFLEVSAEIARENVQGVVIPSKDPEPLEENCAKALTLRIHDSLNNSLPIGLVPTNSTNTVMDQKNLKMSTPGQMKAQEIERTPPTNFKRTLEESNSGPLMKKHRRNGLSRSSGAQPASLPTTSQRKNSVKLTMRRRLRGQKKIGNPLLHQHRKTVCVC
particulars: compound at 0.5 μm; DMSO control 740
valueType: Wip1 Activity (light units @ 590 nm)
Give bare numbers, in light units @ 590 nm.

Some compounds with recorded Wip1 Activity:
INSERT INTO assay_data (compound, valuetype, reportedmeasurement) VALUES
  ('Nc1nc([S][Hg][c]2cc([N+](=O)[O-])ccc2O)c2ncn(C3OC(CO)C(O)C3O)c2n1 (stereo not shown)', 'Wip1 Activity', 690),
  ('Nc1nc(Sc2ccc([N+](=O)[O-])c3nonc23)c2nc[nH]c2n1', 'Wip1 Activity', 750);

State the recorded Wip1 Activity for every item in the following list.
1. CN(C)CN1CSC(=S)N(CN(C)C)C1
2. O=C(O)c1cc[c]([Hg][S]c2ncnc3nc[nH]c23)cc1
3. O=C(O)c1c(Br)c(Br)c(Br)c(Br)c1C1c2ccc(O)cc2Oc2cc(O)ccc21
4. Nc1cc[c]([Hg][S]c2nc(N)nc3c2ncn3C2OC(CO)C(O)C2O)cc1 (stereo not shown)
5. O=C(O)C=Cc1ccc[c]([Sb](=[O])([OH])[OH])c1

Key:
[740, 680, 710, 400, 723]

Please state Wip1 Activity for every compound in the list that follows.
1. O=[N+]([O-])c1ccc(S(=O)(=O)Cc2ccccc2)c2nonc12
2. CC1=C(Br)C(=O)C(C)=C(Br)C1=O
3. CC(=NN=C([S-])SCc1ccccc1)c1ccccn1.[Cl-].[Cu+2]

Key:
[725, 220, 695]

---

measuredTarget: recombinant Wip1 (Homo sapiens, UniProt O15297)
particulars: compound at 1 μm; DMSO control 725
Provide the reported Wip1 Activity of each item.
Numbers only, in light units @ 590 nm.

A selection of reference data follows.
INSERT INTO measurements (compound, reportedmeasurement) VALUES
  ('CC1=C(Br)C(=O)C(C)=C(Br)C1=O', 60),
  ('O=[N+]([O-])c1ccc(S(=O)(=O)Cc2ccccc2)c2nonc12', 250),
  ('O=C(O)C=Cc1ccc[c]([Sb](=[O])([OH])[OH])c1', 575),
  ('Nc1nc([S][Hg][c]2cc([N+](=O)[O-])ccc2O)c2ncn(C3OC(CO)C(O)C3O)c2n1 (stereo not shown)', 225),
  ('Nc1nc(Sc2ccc([N+](=O)[O-])c3nonc23)c2nc[nH]c2n1', 610),
  ('CC(=NN=C([S-])SCc1ccccc1)c1ccccn1.[Cl-].[Cu+2]', 100),
  ('CN(C)CN1CSC(=S)N(CN(C)C)C1', 595),
  ('O=C(O)c1c(Br)c(Br)c(Br)c(Br)c1C1c2ccc(O)cc2Oc2cc(O)ccc21', 250);

Hi there! I need Wip1 Activity for each item below, if you can.
1. Nc1cc[c]([Hg][S]c2nc(N)nc3c2ncn3C2OC(CO)C(O)C2O)cc1 (stereo not shown)
2. O=C(O)c1cc[c]([Hg][S]c2ncnc3nc[nH]c23)cc1

Key:
1. 145
2. 300

---

measuredTarget: recombinant Wip1 (Homo sapiens, UniProt O15297);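 also: recombinant His-tagged Wip1 dephosphorylating a phosphoserine peptide for 1 h at 30 °C, read by fluorescence quench (ex 560, em 590 nm), signal rising with dephosphorylation, DMSO-only reactions as control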
particulars: compound at 0.25 μm; DMSO control 740
valueType: Wip1 Activity (light units @ 590 nm)
Give bare numbers, in light units @ 590 nm.

INSERT INTO assay_data (molecule, reportedmeasurement) VALUES
  ('CN(C)CN1CSC(=S)N(CN(C)C)C1 [Compound D]', 750),
  ('CC1=C(Br)C(=O)C(C)=C(Br)C1=O [Compound L]', 375),
  ('O=C(O)C=Cc1ccc[c]([Sb](=[O])([OH])[OH])c1 [Compound B]', 740),
  ('CC(=NN=C([S-])SCc1ccccc1)c1ccccn1.[Cl-].[Cu+2] [Compound F]', 740),
  ('Nc1nc([S][Hg][c]2cc([N+](=O)[O-])ccc2O)c2ncn(C3OC(CO)C(O)C3O)c2n1 (stereo not shown) [Compound H]', 675);

Each of the following entries comes with a recorded value; kindly state Wip1 Activity for each.
1. O=C(O)c1cc[c]([Hg][S]c2ncnc3nc[nH]c23)cc1 [Compound K]
2. O=C(O)c1c(Br)c(Br)c(Br)c(Br)c1C1c2ccc(O)cc2Oc2cc(O)ccc21 [Compound I]
3. O=[N+]([O-])c1ccc(S(=O)(=O)Cc2ccccc2)c2nonc12 [Compound A]

Key:
1: 630; 2: 625; 3: 745

For every listed record, write down its Wip1 Activity.
1. Nc1nc(Sc2ccc([N+](=O)[O-])c3nonc23)c2nc[nH]c2n1 [Compound C]
2. Nc1cc[c]([Hg][S]c2nc(N)nc3c2ncn3C2OC(CO)C(O)C2O)cc1 (stereo not shown) [Compound M]

Key:
745
525
